Here's a roundup of pKi values tested on Apoptosis regulator Bcl-2 (Homo sapiens, UniProt P10415), taken from various published works.
pKi: −log10 of the molar value.

Worked cases, answers included:
INSERT INTO results (compound, target_or_system, result) VALUES
  ('CC(O)C1C(CO)ON(Cc2cccc(NC(=O)NC(CCc3ccccc3)CN(C)C)c2)C1C(=O)NC1CC2CC(C1C)C2(C)C (stereo not shown)', 'Apoptosis regulator Bcl-2 (Homo sapiens, UniProt P10415)', '> 6.10'),
  ('O=C(NS(=O)(=O)c1ccc(N[C@@H](CSc2ccccc2)C[C@H]2CCCN2CCCO)c(S(=O)(=O)C(F)(F)F)c1)c1ccc(N2CCC([C@@H](O)c3ccccc3-c3ccc(Cl)cc3)CC2)cc1', 'Apoptosis regulator Bcl-2 (Homo sapiens, UniProt P10415)', 9.89),
  ('Cc1ccc(S(=O)(=O)N(Cc2ccc(F)cc2)Cc2cc(CNS(=O)(=O)c3cc(Cl)cc(Cl)c3O)cc(-c3ccc(F)cc3)c2)cc1', 'Apoptosis regulator Bcl-2 (Homo sapiens, UniProt P10415)', 7.70),
  ('COc1c(CN2O[C@@H](CN)[C@@H]([C@H](C)O)[C@H]2C(=O)N[C@H]2C[C@H]3C[C@@H]([C@@H]2C)C3(C)C)cccc1-c1cc(C(=O)N[C@@H](Cc2cscn2)C(=O)N(C)C)cc(N(C)C)c1', 'Apoptosis regulator Bcl-2 (Homo sapiens, UniProt P10415)', '> 9.00'),
  ('COc1cc(CN(CCN(C)C)Cc2cccc(CN3OC(CO)C(C(C)O)C3C(=O)NC3CC4CC(C3C)C4(C)C)c2)cc(OC)c1 (stereo not shown)', 'Apoptosis regulator Bcl-2 (Homo sapiens, UniProt P10415)', '> 6.10');

*Q* Any idea what its pKi is? The compound is CC(O)C1C(CO)ON(Cc2cccc(CN(CCN(C)C)Cc3cccc(Br)c3)c2)C1C(=O)NC1CC2CC(C1C)C2(C)C (stereo not shown)
*A* > 6.10

*Q* Any idea what its pKi is? The compound is Cc1cc(-c2cccc(CN3O[C@@H](CO)[C@@H]([C@H](C)O)[C@H]3C(=O)N[C@H]3C[C@H]4C[C@@H]([C@@H]3C)C4(C)C)c2)ccc1C(=O)N(C)C
*A* > 6.10

*Q* Any idea what its pKi is? The compound is COC(=O)c1c(C)oc2c1c(C(c1ccncc1)N1CCN(C)CC1)c(O)c1ccccc12 (stereo not shown)
*A* 4.86

*Q* Any idea what its pKi is? The compound is CC(O)C1C(CO)ON(Cc2cccc(CN(CCN(C)C)Cc3ccccc3N3CCOCC3)c2)C1C(=O)NC1CC2CC(C1C)C2(C)C (stereo not shown)
*A* > 6.10

*Q* Any idea what its pKi is? The compound is CC(C)C[C@@H](CN(C)C)NCc1cccc(CN2O[C@@H](CO)C([C@H](C)O)[C@H]2C(=O)N[C@H]2C[C@H]3C[C@@H]([C@@H]2C)C3(C)C)c1 (stereo partly shown)
*A* 5.22 to 6.10

*Q* Any idea what its pKi is? The compound is CC(C)CC(CN(C)C)N(Cc1cccc(CN2OC(CO)C(C(C)O)C2C(=O)NC2CC3CC(C2C)C3(C)C)c1)Cc1ccccc1C#N (stereo not shown)
*A* > 6.10
